Data credit: ChEMBL document CHEMBL1201862

system: SK-MEL-5; test: NCI tumour cell line growth inhibition, 48 h
Calls of active or inactive are those of the source. Cut-off read from the data, not from the text of the source: active = GI50 up to about 1.1 µM and inactive = higher.
# GI50 per record follows

# molecule, GI50
measured = [
    ("C=C(C)CCC1CC=[N+]([O-])OC1C(C)(C)C (configuration not stated)", "32.5 µM (inactive)"),
]

Q: // returns reported GI50 for input CCCN(CCC)C(=O)Cc1c2n(c3ccccc13)Cc1ccccc1-2
Ans: 29.6 µM (inactive)

Q: Entry CC(NC1=CC(=O)c2cccnc2C1=O)C(O)c1ccccc1 (configuration not stated) please
Ans: 1.09 µM (active)

Q: Entry CC(=O)N(C(C)=O)c1cc2c3c(c1)CCCN3CCC2 please
Ans: > 10 µM (inactive)

Q: Entry COc1cc(/C=C2\C[C@H]3[C@@H]4CC=C5C[C@@H](O)CC[C@]5(C)[C@H]4CC[C@]3(C)[C@H]2O)cc(OC)c1OC please
Ans: 6.28 µM (inactive)

Q: Entry Cc1nc2ccccc2c(=O)n1-c1n[nH]c2ccccc12 please
Ans: > 100 µM (inactive)
